target: UniProtKB P10275; assay: LNCaP-AR-wt AG reporter assay (agonist mode); assay type: cell-based; settings: agonist mode; pEC50 = −Log10(EC50 in Molar); read-out: LNCaP-AR-wt AG pEC50 (converted)
Sequence (P10275 whole entry): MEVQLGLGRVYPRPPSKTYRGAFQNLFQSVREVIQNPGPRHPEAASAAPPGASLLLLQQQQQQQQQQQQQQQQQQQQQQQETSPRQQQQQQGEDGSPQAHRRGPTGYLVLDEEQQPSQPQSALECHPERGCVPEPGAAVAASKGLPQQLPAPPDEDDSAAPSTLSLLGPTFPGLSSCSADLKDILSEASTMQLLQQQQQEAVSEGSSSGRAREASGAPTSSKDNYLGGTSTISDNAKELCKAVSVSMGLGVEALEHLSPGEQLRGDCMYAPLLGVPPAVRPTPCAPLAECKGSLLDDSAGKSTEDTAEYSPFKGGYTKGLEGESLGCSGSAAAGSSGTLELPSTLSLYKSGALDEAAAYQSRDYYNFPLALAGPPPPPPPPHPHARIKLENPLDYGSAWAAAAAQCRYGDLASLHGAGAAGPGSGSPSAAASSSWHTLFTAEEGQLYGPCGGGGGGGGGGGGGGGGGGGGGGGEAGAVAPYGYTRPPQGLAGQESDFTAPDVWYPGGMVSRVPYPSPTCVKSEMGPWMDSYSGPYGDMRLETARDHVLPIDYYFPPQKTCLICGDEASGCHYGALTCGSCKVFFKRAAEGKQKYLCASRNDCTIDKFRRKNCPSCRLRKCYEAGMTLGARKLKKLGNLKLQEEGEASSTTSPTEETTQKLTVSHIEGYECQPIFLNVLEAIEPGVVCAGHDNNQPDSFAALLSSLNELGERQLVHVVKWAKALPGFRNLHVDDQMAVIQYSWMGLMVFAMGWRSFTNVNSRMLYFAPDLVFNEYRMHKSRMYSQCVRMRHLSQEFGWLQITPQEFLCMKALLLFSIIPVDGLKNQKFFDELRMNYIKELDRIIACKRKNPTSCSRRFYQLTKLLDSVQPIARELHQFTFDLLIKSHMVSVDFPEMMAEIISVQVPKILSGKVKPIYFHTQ
EC50 listing for selected molecules.

[
  {
    "molecule": "COc1cc(N2C(=O)C3(CCC3)N(c3ccc(CC4CCNCC4)cc3)C2=S)cnc1C#N",
    "tgt": "UniProtKB P10275",
    "EC50": "> 15.1 µM"
  },
  {
    "molecule": "CCOC(=O)N1CCC(CNC(=O)c2ccc(N3C(=S)N(c4cnc(C#N)c(C(F)(F)F)c4)C(=O)C34CCC4)cc2)CC1",
    "tgt": "UniProtKB P10275",
    "EC50": "> 15.1 µM"
  },
  {
    "molecule": "N#Cc1ncc(N2C(=O)C3(CCC3)N(c3ccc(O)nc3)C2=S)cc1C(F)(F)F",
    "tgt": "UniProtKB P10275",
    "EC50": "> 15.1 µM"
  },
  {
    "molecule": "CN1CCC(CN(C)C(=O)c2ccc(N3C(=S)N(c4cnc(C#N)c(C(F)(F)F)c4)C(=O)C34CCC4)cc2)CC1",
    "tgt": "UniProtKB P10275",
    "EC50": "> 15.1 µM"
  },
  {
    "molecule": "N#Cc1ncc(N2C(=O)C3(CCC3)N(c3ccc(O[C@@H]4CCN[C@H](C(F)(F)F)C4)cc3)C2=S)cc1C(F)(F)F (racemic)",
    "tgt": "UniProtKB P10275",
    "EC50": "> 15.1 µM"
  },
  {
    "molecule": "COC(=O)CN1CCC(Oc2ccc(N3C(=S)N(c4cnc(C#N)c(C(F)(F)F)c4)C(=O)C34CCC4)cc2)CC1",
    "tgt": "UniProtKB P10275",
    "EC50": "> 15.1 µM"
  },
  {
    "molecule": "N#Cc1ncc(N2C(=O)C3(CCC3)N(c3ccc(OCCN4CC5(C4)CC(F)(F)C5)cc3)C2=S)cc1C(F)(F)F",
    "tgt": "UniProtKB P10275",
    "EC50": "> 15.1 µM"
  },
  {
    "molecule": "N#Cc1ncc(N2C(=O)C3(CCC3)N(c3ccc4c(cnn4CCO)c3)C2=S)cc1C(F)(F)F",
    "tgt": "UniProtKB P10275",
    "EC50": "> 15.1 µM"
  },
  {
    "molecule": "N#Cc1ncc(N2C(=O)C3(CCC3)N(c3ccc(C(=O)NCC4CCNCC4)c(F)c3)C2=S)cc1C(F)(F)F",
    "tgt": "UniProtKB P10275",
    "EC50": "> 15.1 µM"
  },
  {
    "molecule": "COc1cc(N2C(=S)N(c3cnc(C#N)c(C)c3)C(=O)C23CCC3)ccc1-c1ccc(C)o1",
    "tgt": "UniProtKB P10275",
    "EC50": "> 15.1 µM"
  },
  {
    "molecule": "COc1cc(N2C(=O)C3(CCC3)N(c3ccc(OC4CCNCC4)cc3)C2=S)cnc1C#N",
    "tgt": "UniProtKB P10275",
    "EC50": "> 15.1 µM"
  },
  {
    "molecule": "Cc1cc(N2C(=O)C3(CCC3)N(c3ccc(OC4CCN(CCO)CC4)nc3)C2=S)cnc1C#N",
    "tgt": "UniProtKB P10275",
    "EC50": "> 15.1 µM"
  },
  {
    "molecule": "CN1CC2CC1CC2Oc1ccc(N2C(=S)N(c3cnc(C#N)c(C(F)(F)F)c3)C(=O)C23CCC3)cn1 (stereo not drawn)",
    "tgt": "UniProtKB P10275",
    "EC50": "> 15.1 µM"
  },
  {
    "molecule": "CN1CCC(Oc2ccc(N3C(=S)N(c4cnc(C#N)c(C(F)(F)F)c4)C(=O)C34CCC4)cc2)CC12CCC2 (racemic)",
    "tgt": "UniProtKB P10275",
    "EC50": "> 15.1 µM"
  },
  {
    "molecule": "CC(C)(C)CCN1CCC(Oc2ccc(N3C(=S)N(c4cnc(C#N)c(C(F)(F)F)c4)C(=O)C34CCC4)cc2)CC1",
    "tgt": "UniProtKB P10275",
    "EC50": "> 15.1 µM"
  }
]
